Biological target: T1, human galectin-10-His (recombinant human galectin-10 with TEV-cleavable N-terminal His-tag) (human)
T1 construct: SEC-MALLS: dimer in solution; also called Gal10-His; humanGal10-His
T1 chain: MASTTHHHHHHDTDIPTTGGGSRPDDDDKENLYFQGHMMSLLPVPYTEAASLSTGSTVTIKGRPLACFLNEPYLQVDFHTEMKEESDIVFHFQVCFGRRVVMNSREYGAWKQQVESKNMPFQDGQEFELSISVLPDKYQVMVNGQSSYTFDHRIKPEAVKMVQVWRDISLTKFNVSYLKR
Experiment: SPR Biacore T3000, scFv-hFc captured by anti-human Fc, galectin-10-His as analyte

# binder, readout-units, koff
records = [
    ("2C07 scFv-human Fc (Fc fusion, about 100 kDa on SDS-PAGE; also called 2C07 ScFv-hFc; not shown: CH2-CH3 constant domains of human IgG1 (vector pUPEX50)) scFv: ELQLVESGGGLVQPGGSLRLSCAASGFTFSSYAMSWVRQAPGKGLEWVSNINSGGGSTGYADSVKGRFTISRDNAKNTLYLQMNSLKPEDMAVYYCAKYLRTYYPNAAFGMDYWGKGTLVTVSSGGGGSGGGGSGGGGSQAVLTQPSAVSVSLGQTARITCQGGNFGRYYASWYQQKPGQAPVLVIYRDSERPSGIPERFSGSSSGDTATLTISGAQAEDEADYYCQSGRSSDNAVFGGGTHLTGL", "s⁻¹", 0.000259),
    ("4B10 scFv-human Fc (Fc fusion, about 100 kDa on SDS-PAGE; also called 4B10 ScFv-hFc; not shown: CH2-CH3 constant domains of human IgG1 (vector pUPEX50)) scFv: QLQLVESGGGLVQPGGSLRLSCAASGFTFSNYWMYWVRQAPGKGLEWVSAIDVGGGTTDYAGSVKGRFTISRDNTKSTVYLQMNTLKPEDTALYYCLRGGSYYGGMDYWGKGTLVTVSSGGGGSGGGGSGGGGSQSALTQPSAVSVSLGQTARITCQGAKLGRYYGIWYQQKPGQAPVQVIYGDSNRPSGIPERFSGSSSGGTATLTISGAQAEDEADYYCQSYESSTSPVFGGGTHLTVL", "s⁻¹", 0.0128),
    ("6A11 scFv-human Fc (Fc fusion, about 100 kDa on SDS-PAGE; also called 6A11 ScFv-hFc; not shown: CH2-CH3 constant domains of human IgG1 (vector pUPEX50)) scFv: ELQLVESGGGLVQPGGSLRLSCSASGFTFGAYAMNWVRQAPGKGLEWVSGVNSGGGLTSYGESVKGRFTISRDNAKNTLYLQMNRLNPDDTAVYYCAKSKRGAVVAGTGDDYWGQGTQVTVSSGGGGSGGGGSGGGGSSSALTQPSAVSVSLGQTARITCQGGNFGRYYVSWYQQKPGQAPVLVIYKDSERPSGIPERFSGSSSGDTATLTISGAQAEDEADYYCQSGSSSDNAVFGGGTHLTVL", "s⁻¹", 0.124),
]
